B1: His-tag-attached wild-type Hydrogenobacter thermophilus cytochrome c552, holo protein [modified: heme c attached (holo protein); heme c attached (holo protein)] [Hydrogenobacter thermophilus] / itself (parent)
chain: NEQLAKQKGCMACHDLKAKKVGPAYADVAKKYAGRKDAVDYLAGKIKKGGSGVWGSVPMPPQNVTDAEAKQLAQWILSIK

Variants of: B1
MEASUREMENT_PROTOCOL: Ni affinity chromatography (peak areas)
CONDITION_DETAILS: with itself; protein obtained from E. coli cells; parent: 27; read off a plot
MEASURED_PROPERTY: screen value
For clarity, give the value followed by its unit.

Worked examples, 3 variants total:
[[record]]
sequence = "NEQLAKQKGCMACHDLKAKKVGPAYADVAKKFAGRKDAVDELAGKIKKGGSGVWGSVPMPPQNVTDAEAKQLAQWILSIK [chain 1 Y32F Y41E]"
measurement = "11%"

[[record]]
sequence = "NEQLAKQKGCMACHDLKAKKVGPAYADVAKKYAGRKDAVDYLAGKIKKGGSGVWGSVPMPPQNVTDAEAKQLAQWVLSIK [chain 1 I76V]"
measurement = "19%"

[[record]]
sequence = "NEQLFKQKGCVACHDLKAKKVGPAYADVAKKYAGRKDAVDYLAGKIKKGGSGVWGSVPMPPQNVTDAEAKQLAQWILSIK [chain 1 A5F M11V]"
measurement = "14%"


[ask] Fill in: screen value of NEQLFKQKGCVACHDLKAKKVGPAYADVAKKFAGRKDAVDELAGKIKKGGSGVWGSVPMPPQNVTDAEAKQLAQWVLSIK [chain 1 A5F M11V Y32F Y41E I76V] is ___
[reply] 1.8%
